Origin of the recorded values: PubChem BioAssay (NCI)

# Tested on: SNB-75 CNS
# MEASUREMENT PROTOCOL: NCI-60 one-dose screen, 48 h (100 = growth as untreated, 0 = no growth, -100 = all killed)
# MEASUREMENT PARAMETERS: 10 µM unless noted
This is part of a sample that, as a whole, favours compounds with a hit. Of some 83,000 tested, about 20% had one in any assay.
Labelling field: enter Yes if recorded growth is less than 70%. Enter No if it equals or exceeds that cut-off.

# STRUCTURE, ASSIGNED CLASS
measured = [
    ("O=C(CSc1nnc2n1S(=O)(=O)c1ccccc1N2c1ccccc1)Nc1nc2ccc(F)cc2s1", "No"),
    ("O=C(CSc1nc2ccc([N+](=O)[O-])cc2[nH]1)Nc1ccc(F)cc1", "Yes"),
    ("CN(C)CCNc1nc2c3cc(Cl)ccc3nn2c2ccccc12", "No"),
    ("O=C(Cn1c(=O)sc2nc3ccccc3nc21)Nc1ncc(Cc2cccc(Cl)c2Cl)s1", "No"),
    ("Cc1cccc2c1NC(=O)C2(c1ccc(O)cc1)c1ccc(O)cc1", "Yes"),
    ("O=C(Nc1ccc(NC(=O)c2cc(=O)[nH]c3ccccc23)cc1)Nc1cccc(C(F)(F)F)c1", "Yes"),
    ("CSc1nc2sc3c(c2c(=O)n1-c1ccc([N+](=O)[O-])cc1)CCCCC3", "No"),
]

###

# Tested on: UO-31 renal
# MEASUREMENT PROTOCOL: NCI-60 one-dose screen, 48 h (100 = growth as untreated, 0 = no growth, -100 = all killed)
# MEASUREMENT PARAMETERS: 10 µM unless noted
About 83,000 compounds went through this panel and 20% of them were active in at least one assay; those are over-represented in the sample as a whole.
The entries below come with measured growth values attached.

# MOLECULE, growth / %
data = [
    ("Cn1cc(-c2nonc2-c2c[nH]c3ccc(Br)cc23)c2cc(Br)ccc21", 24.4),
    ("O=C(/C=C/c1cn(-c2ccccc2)nc1-c1ccc([N+](=O)[O-])cc1)c1ccc(Cl)cc1", 41.2),
    ("CCOC(=O)c1cc(-c2ccc([N+](=O)[O-])cc2)n(-c2ccc(C(=O)O)c(O)c2)c1C", 24.5),
    ("Oc1c(Cl)cc(Cl)cc1/C=N/Nc1nnc(N/N=C/c2cc(Cl)cc(Cl)c2O)c2ccccc12", 0.684),
    ("COC(=O)c1c2c(c(C)[n+]([O-])c1C)C(=O)C=C(NCc1ccc(OC)cc1)C2=O", -9.55),
    ("CCOC(=O)Cn1c(O)c(N=Nc2ccc(S(N)(=O)=O)cc2)c2cc(Br)ccc21", 87.5),
    ("O=C1Nc2ccccc2[C@]12CC(c1ccccc1)=NN2", 49.5),
    ("COc1cc2oc(-c3cccc(NC(=O)c4cccc(Br)c4)c3)cc(=O)c2c(OC)c1OC", 36.8),
    ("Cc1cccc(N2CCN(CC(O)COc3ccc(Cl)cc3)CC2)c1 (centres undefined)", 85.3),
]

###

# System: IGROV1 ovarian
# MEASUREMENT PROTOCOL: NCI-60 one-dose screen, 48 h
# MEASUREMENT PARAMETERS: 10 µM unless noted
About 83,000 compounds went through this panel and 20% of them were active in at least one assay; those are over-represented in the sample as a whole. Activity calls are given as the source filed them. Rule for the calls: active = growth percent below 10; inactive = the rest.
Outcome codes: true (1) (active), false (0) (inactive)

# STRUCTURE, ASSIGNED CLASS
measured = [
    ("Cc1ccc(Sc2oc(-c3ccc(C)cc3)nc2[P+](c2ccccc2)(c2ccccc2)c2ccccc2)cc1", "true (1)"),
    ("CCCCOC(=O)OCc1cc(=O)c(O)co1", "false (0)"),
    ("N#Cc1c(N)nnn1Cc1cc(=O)oc2c1ccc1ccccc12", "false (0)"),
    ("CCN(CC)CCCN1C(=O)c2c(c(C)c3c(oc4cc(O)ccc43)c2C)C1=O", "true (1)"),
    ("CC(C)(C)n1cc(-c2ccnc(NCCNS(=O)(=O)c3cccc4ccccc34)c2)c(-c2cccc(F)c2)n1", "true (1)"),
    ("O=c1oc2ccc([N+](=O)[O-])cc2cc1Br", "false (0)"),
    ("Cc1ccc(/C=C2\\CN(C(=O)OC(C)(C)C)C/C(=C\\c3ccc(C)cc3)C2=O)cc1", "false (0)"),
    ("CN(C)Cc1ccc(NC(=O)c2cncc(C#Cc3cnc(N)c4ncccc34)c2)cc1F", "false (0)"),
    ("COc1ccc2c(O)c(/C=C3\\N=Nc4ccccc43)oc2c1C[C@@H]1CCNC[C@H]1F", "false (0)"),
    ("COc1cc(CNC(=O)/C=C/C=C/c2ccc3c(c2)OCO3)ccc1OCc1cn(-c2ccc(C)c(C)c2)nn1", "false (0)"),
]

###

# Tested on: A498 renal
# MEASUREMENT PROTOCOL: NCI-60 one-dose screen, 48 h (100 = growth as untreated, 0 = no growth, -100 = all killed)
# MEASUREMENT PARAMETERS: 10 µM unless noted
About 83,000 compounds went through this panel and 20% of them were active in at least one assay; those are over-represented in the sample as a whole.
Assign y whenever growth does not fall below 90%; assign n whenever it does.

# MOLECULE, ASSIGNED CLASS
measured = [
    ("COc1ccc2[nH]cc(-c3nc(-c4c[nH]c5ccncc45)cs3)c2c1", "n"),
    ("COC(=O)[C@]1(C)CCC[C@]2(C)[C@H]3C[C@H]4C(C(C)C)=C[C@]3(CC[C@H]21)[C@H]1[C@@H]4[C@@H](OCCC#N)CC[C@@H]1OCCC#N", "n"),
    ("CN1C(=O)/C(=C/c2cn(-c3ccccc3)nc2-c2ccccc2)SC1=S", "n"),
    ("Cc1ccc(C(C(N)=O)C(C(N)=O)c2ccccc2)cc1 (stereo not given)", "y"),
]

###

# Test system: SNB-19 CNS
# MEASUREMENT PROTOCOL: NCI-60 one-dose screen, 48 h (100 = growth as untreated, 0 = no growth, -100 = all killed)
# MEASUREMENT PARAMETERS: 10 µM unless noted
The panel holds about 83,000 compounds, 20% with a hit somewhere; the sample as a whole holds those more often.

# COMPOUND, RESULT UNIT, growth
rows = [
    ("COc1cc(-c2nc(SCCC(C)C)nc(Nc3ccccc3Cl)c2C#N)cc(OC)c1OC", "%", 98.9),
    ("Brc1ccc2[nH]cc(-c3nonc3-c3c[nH]c4ccccc34)c2c1", "%", 63.8),
    ("CCc1ccc(C(=O)/C=C/C23c4ccccc4C(c4ccccc42)C2C(=O)NC(=O)C23)cc1 (centres undefined)", "%", 12),
    ("CO/N=C(/C)c1ccc(NC(=O)CSc2nnc(-c3ccncc3)n2-c2ccccc2)cc1", "%", 30.4),
    ("O=C(CCc1nnc(Cn2cnc3nc[nH]c3c2=O)o1)c1nc2ncccc2[nH]1", "%", 94.6),
    ("O=C(N/N=C/c1ccc(F)cc1)c1ccc(C(F)(F)F)nc1Nc1cccc(C(F)(F)F)c1", "%", 18.4),
    ("O=C(CCCCC1CCSS1)Nc1ncnc2n[nH]c(-c3ccc(Oc4ccccc4)cc3)c12 (centres undefined)", "%", 114),
    ("Cc1nc2sc(C(=O)Nc3cccc(Cl)c3C)c(N)c2cc1C(=O)c1ccccc1", "%", 12.7),
    ("COP(=O)(OC)C(C)(C)CC(=O)CC(C#N)(C#N)C(C#N)C#N", "%", 99.3),
    ("COc1ccc2[nH]cc(C(c3cc(F)cc(F)c3)c3c[nH]c4ccc(OC)cc34)c2c1", "%", 82.9),
    ("CC(=O)OCc1nc(C#N)c(N(C)C)o1", "%", 95.9),
    ("C=C1C(=O)O[C@H]2[C@H]1CC/C(COC(=O)N[C@H]1C[C@H](O[C@H]3C[C@](O)(C(=O)CO)Cc4c(O)c5c(c(O)c43)C(=O)c3c(OC)cccc3C5=O)O[C@@H](C)[C@H]1O)=C\\CC[C@@]1(C)O[C@@H]21", "%", 68.4),
    ("N#Cc1nc(-c2ccccc2)oc1S(=O)(=O)N1CCOCC1", "%", 91.7),
    ("Cc1c(-c2nc3ccc(F)cc3c(=O)[nH]2)c2ccccc2n1C", "%", 29.2),
    ("O=C(Cn1cc(CN2CCCCCC2)nn1)Nc1ccc2c(ccn2Cc2ccccc2)c1", "%", 98.8),
    ("CN(C)CCNC(=O)c1cccc(-c2cnc3ccc(-c4ccc5c(c4)OCO5)nn23)c1", "%", 84.3),
    ("O=C(CSc1nnc2n1S(=O)(=O)c1ccccc1N2c1ccccc1)Nc1nc2ccc(F)cc2s1", "%", 99.6),
    ("CCCCC(=O)Nc1ncc(Cc2ccc(Cl)cc2)s1", "%", 77.2),
    ("Cn1cc(-c2nonc2-c2c[nH]c3ccc(Br)cc23)c2cc(Br)ccc21", "%", 42.8),
]
